Origin of values: ChEMBL document CHEMBL5393457

Field: inhibition. Provide a value for each of the molecules that follow.
- Measurement Target: Large neutral amino acids transporter small subunit 1 (Homo sapiens)
- Method Summary: Inhibition of human LAT1 at 100 uM relative to control

q: Dear colleague, I am looking for the recorded inhibition of the following molecule: `N#Cc1cc(Br)ccc1/N=c1\ssnc1Cl`
a: > 90%

q: Item: `FC(F)(F)Oc1ccc(/N=c2\ssnc2Cl)cc1`
a: > 90%

q: Can you handle `N#Cc1ccc(Cl)cc1/N=c1\ssnc1Cl` next?
a: > 90%

q: Also `N#Cc1c(Br)cccc1/N=c1\ssnc1Cl` ?
a: > 90%

q: Cool, now `Fc1ccc(Cl)cc1/N=c1\ssnc1Cl`
a: > 90%

q: Now give it for `N#C/C=N/c1c(SS)c(-c2ccccc2)nn1Cc1ccccc1` too.
a: > 90%
